# Organism: Homo sapiens
# Assay Name: Selectivity ratio of Ki for displacement of [3H]-CP55940 from human CB2 receptor expressed in CHO cell membranes to Ki for displacement of [3H]-CP55940 from human CB1 receptor expressed in CHO cell membranes
Recorded Ratio Ki values for a group of molecules are listed next.
Property Measured: Ratio Ki

| Molecule | Property Measured | Value |
| --- | --- | --- |
| N=C(NC1CCN(c2ncnc3c2nc(-c2ccccc2Cl)n3-c2ccc(Cl)cc2)CC1)c1ccc(F)cc1 | Ratio Ki | > 7 |
| O=S(=O)(NC1CCN(c2ncnc3c2nc(-c2ccccc2Cl)n3-c2ccc(OC(F)F)nc2)CC1)c1ccc(F)c(F)c1 | Ratio Ki | 290 |
| CCCCC(=O)NC1CCN(c2ncnc3c2nc(-c2ccccc2Cl)n3-c2ccc(C(F)(F)F)nc2)CC1 | Ratio Ki | 140 |
| O=S(=O)(NC1CCN(c2ncnc3c2nc(-c2ccccc2Cl)n3-c2ccc(C(F)(F)F)nc2)CC1)c1ccccc1F | Ratio Ki | 100 |
| O=C(NC1CCN(c2ncnc3c2nc(-c2ccccc2Cl)n3-c2ccc(C(F)(F)F)nc2)CC1)c1ccccc1 | Ratio Ki | 92 |
| Clc1ccc(-n2c(-c3ccccc3Cl)nc3c(N4CCC(Nc5ccccn5)CC4)ncnc32)cc1 | Ratio Ki | 1300 |
| CC(C(=O)NC1CCN(c2ncnc3c2nc(-c2ccccc2Cl)n3-c2ccc(Cl)cc2)CC1)c1ccccc1 (configuration not stated) | Ratio Ki | 50 |
| O=C(NC1CCN(c2ncnc3c2nc(-c2ccccc2Cl)n3-c2ccc(Cl)cc2)CC1)OCc1ccccc1 | Ratio Ki | 180 |
| O=S(=O)(CCC(F)(F)F)NC1CCN(c2ncnc3c2nc(-c2ccccc2Cl)n3-c2ccc(Cl)cc2)CC1 | Ratio Ki | 105 |
| CCCCCS(=O)(=O)NC1CCN(c2ncnc3c2nc(-c2ccccc2Cl)n3-c2ccc(Cl)cc2)CC1 | Ratio Ki | 63 |
| Clc1ccc(-n2c(-c3ccccc3Cl)nc3c(N4CCC(Nc5ccccc5)CC4)ncnc32)cc1 | Ratio Ki | > 1600 |
| Cc1cc(-n2c(-c3ccccc3Cl)nc3c(N4CCC(NS(=O)(=O)c5ccc(F)c(F)c5)CC4)ncnc32)no1 | Ratio Ki | > 20 |
| O=S(=O)(NC1CCN(c2ncnc3c2nc(-c2ccccc2Cl)n3-c2ccc(C(F)(F)F)nc2)CC1)c1ccc(F)c(F)c1 | Ratio Ki | > 600 |
| O/N=C(\c1ccc(F)cc1)C1CCN(c2ncnc3c2nc(-c2ccccc2Cl)n3-c2ccc(Cl)cc2)CC1 (stereo in doubt; 20) | Ratio Ki | > 2000 |
| O=C(NC1CCN(c2ncnc3c2nc(-c2ccccc2Cl)n3-c2ccc(Cl)cc2)CC1)c1ccc(F)cc1 | Ratio Ki | 5000 |
| O=S(=O)(NC1CCN(c2ncnc3c2nc(-c2ccccc2Cl)n3-c2ccc(Cl)cc2)CC1)c1ccc(F)cc1F | Ratio Ki | > 5000 |
| O=C(NC1CCN(c2ncnc3c2nc(-c2ccccc2Cl)n3-c2ccc(Cl)cc2)CC1)c1ccc(F)c(F)c1 | Ratio Ki | 2000 |

* * *

# Ke(app) annotations
# Subject Of Test: UniProt:P21554
# Sequence (P21554 whole entry): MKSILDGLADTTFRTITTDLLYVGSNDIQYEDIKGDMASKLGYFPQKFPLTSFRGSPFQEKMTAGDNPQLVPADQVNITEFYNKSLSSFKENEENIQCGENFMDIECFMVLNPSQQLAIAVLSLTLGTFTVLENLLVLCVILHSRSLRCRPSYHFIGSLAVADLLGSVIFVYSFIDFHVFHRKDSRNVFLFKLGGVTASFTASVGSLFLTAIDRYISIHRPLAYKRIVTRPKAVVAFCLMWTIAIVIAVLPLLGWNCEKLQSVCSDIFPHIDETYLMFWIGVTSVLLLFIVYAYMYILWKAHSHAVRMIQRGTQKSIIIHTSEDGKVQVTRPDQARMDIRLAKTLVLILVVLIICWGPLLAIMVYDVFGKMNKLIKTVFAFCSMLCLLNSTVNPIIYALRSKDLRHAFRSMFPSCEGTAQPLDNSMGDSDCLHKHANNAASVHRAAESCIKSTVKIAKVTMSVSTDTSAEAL
# Assay Name: Inverse agonist activity at human CB1 receptor expressed in CHOK1 cells co-expressing Galphaq16 assessed as apparent equilibrium constant after 90 secs by […]-4 AM dye-based FLIPR assay
# Assay type: cell-based
Property Measured: Ke(app) (nM)

| Compound | Value |
| --- | --- |
| O=C(NC1CCN(c2ncnc3c2nc(-c2ccccc2Cl)n3-c2ccc(Cl)cc2)CC1)OC1COC1 | 92 |
| Cn1cc(-n2c(-c3ccccc3Cl)nc3c(N4CCC(NS(=O)(=O)c5ccc(F)c(F)c5)CC4)ncnc32)cn1 | 140 |
| CC(C)(C)OCCC(=O)NC1CCN(c2ncnc3c2nc(-c2ccccc2Cl)n3-c2ccc(Cl)cc2)CC1 | 1.7 |
| O=S(=O)(NC1CCN(c2ncnc3c2nc(-c2ccccc2Cl)n3-c2ccc(OC(F)F)nc2)CC1)c1ccccc1F | 0.7 |
| O=C(NC1CCN(c2ncnc3c2nc(-c2ccccc2Cl)n3-c2ccc(Cl)cc2)CC1)c1ccc(F)cc1F | 1.2 |
| Clc1ccc(-n2c(-c3ccccc3Cl)nc3c(N4CCC(Nc5ccccn5)CC4)ncnc32)cc1 | 54 |
| O=S(=O)(CCC(F)(F)F)NC1CCN(c2ncnc3c2nc(-c2ccccc2Cl)n3-c2ccc(Cl)cc2)CC1 | 12 |
| O/N=C(\c1ccc(F)cc1)C1CCN(c2ncnc3c2nc(-c2ccccc2Cl)n3-c2ccc(Cl)cc2)CC1 (stereo in doubt; 21) | 21 |
| O=C(NC1CCN(c2ncnc3c2nc(-c2ccccc2Cl)n3-c2ccc(Cl)cc2)CC1)c1ccccn1 | 140 |
| O=C(CN1CCOCC1)NC1CCN(c2ncnc3c2nc(-c2ccccc2Cl)n3-c2ccc(Cl)cc2)CC1 | 1100 |
| O=C(NC1CCN(c2ncnc3c2nc(-c2ccccc2Cl)n3-c2ccc(Cl)cc2)CC1)OCC1COC1 | 77 |
| Fc1ccc(CNC2CCN(c3ncnc4c3nc(-c3ccccc3Cl)n4-c3ccc(Cl)cc3)CC2)cc1 | 210 |
| O=S(=O)(NC1CCN(c2ncnc3c2nc(-c2ccccc2Cl)n3-c2cc(C(F)(F)F)[nH]n2)CC1)c1ccc(F)c(F)c1 | 5000 |
| Clc1ccc(-n2c(-c3ccccc3Cl)nc3c(N4CCC(NCc5ccncc5)CC4)ncnc32)cc1 | 580 |
| O=S(=O)(NC1CCN(c2ncnc3c2nc(-c2ccccc2Cl)n3-c2ccc(Cl)cc2)CC1)c1ccc(F)cc1 | 1.1 |
| O=C(NC1CCN(c2ncnc3c2nc(-c2ccccc2Cl)n3-c2ccc(Cl)cc2)CC1)C1CCOC1 (configuration not stated) | 150 |
| O=C(NC1CCN(c2ncnc3c2nc(-c2ccccc2Cl)n3-c2ccc(Cl)cc2)CC1)OCc1ccccc1 | 3 |
